target: Syk (Homo sapiens); construct: purchased Carna Biosciences; test: Syk HTRF assay; assay type: biochemical; conditions: read-out: Activity Level (Syk HTRF assay IC50)
pIC50: −log10 of the molar value.
The compounds listed here are annotated with their pIC50.

Entry Cc1n[nH]c2cc(Nc3nc4cccc(NC5COCC5O)n4n3)ccc12 (racemic) [Example 166] : reported pIC50 = ?
6.60 to 11.30

Moving on to CC1(C)C(=O)Nc2cc(Nc3nc4cccc(N[C@H]5CC[C@](C)(O)CC5)n4n3)ccc21 [Example 162]
6.60 to 11.30

* * *

target: Syk (Homo sapiens, UniProt P43405); construct: purchased Carna Biosciences; test: Syk HTRF assay; assay type: biochemical; conditions: activity levels A-D, read-out: Activity Level (IC50 in the Syk HTRF assay)
measured parameter: IC50

{"compound": "OCCOc1cccc2nc(Nc3ccc(C(F)(F)F)cc3)nn12 [Example 315]", "measured parameter": "IC50", "assay result": "1000 to 10000 nM"}
{"compound": "O[C@@H]1CCCC1Nc1cccc2nc(Nc3ccc(C(F)(F)F)cc3)nn12 (stereo in doubt) [Example 377]", "measured parameter": "IC50", "assay result": "0.005 to 250 nM"}
{"compound": "Cc1n[nH]c2cc(Nc3nc4cccc(CN5CCNC(=O)C5)n4n3)ccc12 [Example 235]", "measured parameter": "IC50", "assay result": "0.005 to 250 nM"}
{"compound": "CNC(=O)c1ccc(Nc2nc3cccc(N4CCC(O)CC4)n3n2)cc1 [Example 242]", "measured parameter": "IC50", "assay result": "1000 to 10000 nM"}
{"compound": "O[C@H]1CCC[C@H]1Nc1cccc2nc(Nc3ccc(C(F)(F)F)cc3)nn12 (stereo in doubt) [Example 376]", "measured parameter": "IC50", "assay result": "1000 to 10000 nM"}

Then this compound:
Entry COc1cccc(Nc2nc3cccc(N[C@H]4CC[C@@H](O)CC4)n3n2)n1 [Example 342] : reported IC50 = ?
1000 to 10000 nM

* * *

target: Syk (Homo sapiens, UniProt P43405); construct: purchased Carna Biosciences; assay: Syk HTRF assay; format: biochemical; conditions: IC50 activity level, read-out: Activity Level
pIC50: −log10 of the molar value.
The compounds listed here are annotated with their pIC50.

Would you please look over these solved cases?
{"compound": "CNCc1nc2ccc(-c3cccc4nc(Nc5ccccc5)nn34)cc2o1", "pIC50": "6.00 to 6.30"}
{"compound": "NC(=O)[C@H]1CC[C@@H](Nc2cccc3nc(Nc4ccccc4)nn23)CC1", "pIC50": "5.00 to 6.00"}
{"compound": "CC(C)C(=O)Nc1cccc2nc(Nc3ccccc3)nn12", "pIC50": "5.00 to 6.00"}
{"compound": "Cc1ccc(Nc2nc3cccc(N[C@H]4CC[C@@H](O)CC4)n3n2)cn1", "pIC50": "6.60 to 11.30"}
{"compound": "c1cc(NC2CCCNC2)n2nc(Nc3ccc(N4CCOCC4)nc3)nc2c1 (stereo in doubt)", "pIC50": "6.60 to 11.30"}

Entry `C[C@@H](CN)Cc1cccc2nc(Nc3ccccc3)nn12` : reported pIC50 = ?
5.00 to 6.00

Moving on to CC1(C)C(=O)Nc2cc(Nc3nc4cccc(CC5CCOC5)n4n3)ccc21 (single isomer, unassigned; enantiomer 2) [Example 558]
6.60 to 11.30

Moving on to `Cc1n[nH]c2ncc(Nc3nc4cccc(N[C@H]5CC[C@@H](O)CC5)n4n3)cc12`
6.60 to 11.30

Moving on to CC(CN)Cc1cccc2nc(Nc3ccccc3)nn12 (stereo in doubt)
5.00 to 6.00

Moving on to `Nc1n[nH]c2cc(Nc3nc4cccc(N[C@H]5CCCNC5)n4n3)ccc12`
6.60 to 11.30

* * *

target: Syk (Homo sapiens); construct: purchased Carna Biosciences; assay: Syk HTRF assay; format: biochemical; conditions: read-out: Activity Level (Syk HTRF assay IC50)
The compounds listed here are annotated with their IC50.

Would you please look over these solved cases?
{"compound": "Cc1n[nH]c2ccc(Nc3nc4cccc(CC5CCOCC5)n4n3)cc12 [compound 116]", "IC50": "0.005 to 250 nM"}
{"compound": "Cc1nn(C)c2cc(Nc3nc4cccc(N[C@H]5CC[C@@H](O)CC5)n4n3)cc(F)c12 [Example 149]", "IC50": "0.005 to 250 nM"}
{"compound": "CC1(C)C(=O)Nc2cc(Nc3nc4cccc(NC5CCCNC5)n4n3)ccc21 (stereo in doubt) [Example 154]", "IC50": "0.005 to 250 nM"}
{"compound": "Oc1cccc(-c2cccc3nc(Nc4ccc(-c5ncc[nH]5)cc4)nn23)c1 [compound 16]", "IC50": "0.005 to 250 nM"}

Entry CNC(=O)c1ccc(Nc2nc3cccc(-c4cccc(Cl)c4)n3n2)cc1 [compound 13] : reported IC50 = ?
0.005 to 250 nM

Moving on to COCc1nc2ccc(Nc3nc4cccc(CC5CCOCC5)n4n3)cc2[nH]1 [compound 132]
0.005 to 250 nM

Moving on to N#Cc1cc(Nc2nc3cccc(-c4ccccc4)n3n2)ccn1 [compound 52]
1000 to 10000 nM

Moving on to Cc1cc(Nc2nc3cccc(Cc4ccnc(O)c4)n3n2)cc2[nH]ncc12 [compound 124]
0.005 to 250 nM

* * *

target: Syk (Homo sapiens, UniProt P43405); construct: purchased Carna Biosciences; assay: Syk HTRF assay; assay type: biochemical; conditions: read-out: Activity Level (Syk HTRF assay IC50)
pIC50: −log10 of the molar value.
The molecules listed here are annotated with their pIC50.

Entry `CC1(C)NC(=O)c2cc(Nc3nc4cccc(NC5CCOCC5)n4n3)ccc21` : reported pIC50 = ?
6.00 to 6.30

Moving on to `Cc1n[nH]c2cc(Nc3nc4cccc(N(C)C5CCOCC5)n4n3)ccc12`
6.60 to 11.30

Moving on to `Cc1n[nH]c2cc(Nc3nc4cccc(NC[C@H]5CC[C@H](O)C5)n4n3)ccc12`
6.60 to 11.30

Moving on to `CC1(O)CN(c2cccc3nc(Nc4ccc5c(c4)NC(=O)C5(C)C)nn23)C1`
6.60 to 11.30

Moving on to `NC(=O)c1ccc(Nc2nc3cccc(-c4ccccc4)n3n2)cc1F`
5.00 to 6.00

Moving on to `CNC(=O)c1ccc(Nc2nc3cccc(-c4cccc(CCN)c4)n3n2)cc1`
6.30 to 6.60

Moving on to `CNC(=O)c1ccc(Nc2nc3cccc(-c4cccc(C(N)=O)c4)n3n2)cc1`
6.00 to 6.30

* * *

target: Syk (Homo sapiens); construct: purchased Carna Biosciences; experiment: Syk HTRF assay; type: biochemical; conditions: read-out: Activity Level (Syk HTRF assay IC50)
measured parameter: IC50

Would you please look over these solved cases?
{"molecule": "c1ccc(Nc2nc3cccc(-c4cccc(-c5ncn[nH]5)c4)n3n2)cc1 [compound 62]", "measured parameter": "IC50", "assay result": "250 to 500 nM"}
{"molecule": "CNC(=O)c1ccc(Nc2nc3cccc(-c4cccc(OC)c4)n3n2)cc1 [compound 20]", "measured parameter": "IC50", "assay result": "250 to 500 nM"}
{"molecule": "NC(=O)c1cc(Nc2nc3cccc(-c4ccccc4)n3n2)ccn1 [compound 51]", "measured parameter": "IC50", "assay result": "1000 to 10000 nM"}
{"molecule": "CN1CCC(NC(=O)c2ccc(Nc3nc4cccc(-c5cccc(O)c5)n4n3)cc2)CC1 [compound 34]", "measured parameter": "IC50", "assay result": "0.005 to 250 nM"}
{"molecule": "COCc1nc2ccc(Nc3nc4cccc(N[C@H]5CC[C@@H](O)CC5)n4n3)cc2[nH]1 [Example 196]", "measured parameter": "IC50", "assay result": "0.005 to 250 nM"}
{"molecule": "CC1(C)C(=O)Nc2cc(Nc3nc4cccc(NC5CCOCC5)n4n3)ccc21 [Example 177]", "measured parameter": "IC50", "assay result": "0.005 to 250 nM"}
{"molecule": "CN1C(=O)Cc2ccc(Nc3nc4cccc(N[C@H]5CC[C@@H](O)CC5)n4n3)cc21 [Example 192]", "measured parameter": "IC50", "assay result": "0.005 to 250 nM"}
{"molecule": "Oc1cccc(-c2cccc3nc(Nc4ccc5cn[nH]c5c4)nn23)c1 [compound 27]", "measured parameter": "IC50", "assay result": "0.005 to 250 nM"}

Find the measured IC50: item COCc1n[nH]c2cc(Nc3nc4cccc(CC5CCOCC5)n4n3)ccc12 [compound 104] , target or system Syk (Homo sapiens).
0.005 to 250 nM
